- Tested on: Hepatitis C virus
- Protocol Notes: Antiviral activity against Hepatitis C virus infected in human HUH7 cells by replicon assay
- Type: functional, organism-based, Hepacivirus hominis
- Assay Context: Huh-7
pEC50: −log10 of the molar value.
Metric Name: pEC50

(1) CN(C)CC(=O)N1CCn2c(c(C3CCCCC3)c3ccc(C(=O)O)cc32)-c2ccccc2C1
(2) CN(C)CCN1Cc2ccccc2-c2c(C3CCCCC3)c3ccc(C(=O)O)cc3n2CCC1=O
(3) CN(C)CC1CN(C)c2ccccc2-c2c(C3CCCCC3)c3ccc(C(=O)O)cc3n21 (racemic)
(4) CN(C)CCN1C(=O)Cn2c(c(C3CCCCC3)c3ccc(C(=O)O)cc32)-c2ccccc21
Sort key = pEC50. Sort direction = ascending. Apply to the list above. // format: requested-order list of labels
3, 2, 4, 1

(a) CN(C)CC(=O)N1CCn2c(c(C3CCCCC3)c3ccc(C(=O)O)cc32)-c2ccc(F)cc2C1
(b) CN1CCn2c(c(C3CCCCC3)c3ccc(C(=O)O)cc32)-c2ccccc2C1
Which value of pEC50 is numerically greater: that of a or that of b ? State the label of the item chosen.
a

* * *

- Protocol Notes: Intrinsic clearance in rhesus monkey liver microsomes in presence of NADPH
- Type: ADME, Macaca mulatta, Microsome
Metric Name: CLint scaled (mL/min/kg)

Kindly note the recorded CLint scaled for "CN(C)CCN1CCn2c(c(C3CCCCC3)c3ccc(C(=O)O)cc32)-c2ccccc2C1" , which is 51

(I) CN(C)CC(=O)N1CCn2c(c(C3CCCCC3)c3ccc(C(=O)O)cc32)-c2ccc(F)cc2C1
(II) COc1ccc2c(c1)CN(C)CCn1c-2c(C2CCCCC2)c2ccc(C(=O)O)cc21
Could you tell me which of these two has the smaller CLint scaled figure? First: I Second: II State the label of the item chosen.
II
(II: 16 mL/min/kg, I: 42 mL/min/kg)

* * *

- Protocol Notes: Fraction unbound in human plasma
- Assay type: ADME, cell-free
Metric Name: fraction unbound

(A) CN(C)CC(=O)N1CCn2c(c(C3CCCCC3)c3ccc(C(=O)O)cc32)-c2ccc(F)cc2C1
(B) CN(C)CCN1CCn2c(c(C3CCCCC3)c3ccc(C(=O)O)cc32)-c2ccccc2C1
Could you tell me which of these two has the smaller fraction unbound figure? First: A Second: B State the label of the item chosen.
A

* * *

- Protocol Notes: Plasma clearance in rat
- Assay type: ADME, organism-based
Metric Name: clearance (mL/min/kg)

Kindly note the recorded clearance for "CN(C)CCN1CCn2c(c(C3CCCCC3)c3ccc(C(=O)O)cc32)-c2ccccc2C1" , which is 61

(I) CN(C)CC(=O)N1CCn2c(c(C3CCCCC3)c3ccc(C(=O)O)cc32)-c2ccc(F)cc2C1
(II) COc1ccc2c(c1)CN(C)CCn1c-2c(C2CCCCC2)c2ccc(C(=O)O)cc21
Which value of clearance is numerically greater: that of I or that of II ? State the label of the item chosen.
II
(II: 32 mL/min/kg, I: 12 mL/min/kg)

* * *

- Protocol Notes: AUC in dog
- Assay type: ADME, organism-based, Canis lupus familiaris
- Assay Context: plasma
Metric Name: AUC (µM·h)

Kindly note the recorded AUC for "COc1ccc2c(c1)CN(C)CCn1c-2c(C2CCCCC2)c2ccc(C(=O)O)cc21" , which is 18.7

Kindly note the recorded AUC for "CN(C)CCN1CCn2c(c(C3CCCCC3)c3ccc(C(=O)O)cc32)-c2ccccc2C1" , which is 23

Kindly note the recorded AUC for "CN(C)CC(=O)N1CCn2c(c(C3CCCCC3)c3ccc(C(=O)O)cc32)-c2ccc(F)cc2C1" , which is 17.6

* * *

- Protocol Notes: AUC in rhesus monkey
- Assay type: ADME, organism-based, Macaca mulatta
- Assay Context: plasma
Metric Name: AUC (µM·h)
Quick note: give the figure in µM·h, leave out the unit.

Kindly note the recorded AUC for "CN(C)CCN1CCn2c(c(C3CCCCC3)c3ccc(C(=O)O)cc32)-c2ccccc2C1" , which is 2

* * *

- Protocol Notes: Oral bioavailability in rhesus monkey
- Format: ADME, organism-based, Macaca mulatta
- Assay Context: in vivo
Metric Name: bioavailability (%)
Quick note: give the figure in %, leave out the unit.

Kindly note the recorded bioavailability for "CN(C)CCN1CCn2c(c(C3CCCCC3)c3ccc(C(=O)O)cc32)-c2ccccc2C1" , which is 57

* * *

- Protocol Notes: Plasma clearance in dog
- Assay type: ADME, organism-based, Canis lupus familiaris
Metric Name: clearance (mL/min/kg)

Kindly note the recorded clearance for "CN(C)CC(=O)N1CCn2c(c(C3CCCCC3)c3ccc(C(=O)O)cc32)-c2ccc(F)cc2C1" , which is 3

Kindly note the recorded clearance for "COc1ccc2c(c1)CN(C)CCn1c-2c(C2CCCCC2)c2ccc(C(=O)O)cc21" , which is 2.9

Kindly note the recorded clearance for "CN(C)CCN1CCn2c(c(C3CCCCC3)c3ccc(C(=O)O)cc32)-c2ccccc2C1" , which is 2.5

* * *

- Protocol Notes: Intrinsic clearance in dog liver microsomes in presence of NADPH
- Format: ADME, Canis lupus familiaris, Microsome
Metric Name: CLint scaled (mL/min/kg)

Kindly note the recorded CLint scaled for "CN(C)CC(=O)N1CCn2c(c(C3CCCCC3)c3ccc(C(=O)O)cc32)-c2ccc(F)cc2C1" , which is 8

(I) COc1ccc2c(c1)CN(C)CCn1c-2c(C2CCCCC2)c2ccc(C(=O)O)cc21
(II) CN(C)CCN1CCn2c(c(C3CCCCC3)c3ccc(C(=O)O)cc32)-c2ccccc2C1
Which value of CLint scaled is numerically greater: that of I or that of II ? State the label of the item chosen.
II
(II: 26 mL/min/kg, I: 6 mL/min/kg)

* * *

- Protocol Notes: Inhibition of HCV NS5B Cdelta21 in presence of heterogenic template RNA
- Parameters: species or system Hepacivirus hominis
Metric Name: IC50 (µM)

Kindly note the recorded IC50 for "CN(C)CCN1C(=O)Cn2c(c(C3CCCCC3)c3ccc(C(=O)O)cc32)-c2ccccc21" , which is 0.13

Kindly note the recorded IC50 for "CN1CCn2c(c(C3CCCCC3)c3ccc(C(=O)O)cc32)-c2ccccc2C1" , which is 0.17

(1) CN1Cc2ccccc2-c2c(C3CCCCC3)c3ccc(C(=O)O)cc3n2CC1=O
(2) CN(C)CC1CN(C)c2ccccc2-c2c(C3CCCCC3)c3ccc(C(=O)O)cc3n21 (racemic)
Could you tell me which of these two has the smaller IC50 figure? First: 1 Second: 2 State the label of the item chosen.
1
(1: 0.08 µM, 2: 1.92 µM)

(I) CN(C)CCN1Cc2ccccc2-c2c(C3CCCCC3)c3ccc(C(=O)O)cc3n2CC1=O
(II) CN(C)C(=O)Cn1c(-c2ccccc2)c(C2CCCCC2)c2ccc(C(=O)O)cc21
(III) CN(C)CCN1Cc2ccccc2-c2c(C3CCCCC3)c3ccc(C(=O)O)cc3n2CCC1=O
Please list these molecules in decreasing order of IC50. // format: requested-order list of labels
III, II, I

(a) CN(C)CC(=O)N1CCn2c(c(C3CCCCC3)c3ccc(C(=O)O)cc32)-c2ccccc2C1
(b) CCN(CC)C1CCN(C(=O)Cn2c(-c3ccc(Cl)cc3)c(C3CCCCC3)c3ccc(C(=O)O)cc32)CC1
Which value of IC50 is numerically greater: that of a or that of b ? State the label of the item chosen.
a

(A) CN(C)CC1Cn2c(c(C3CCCCC3)c3ccc(C(=O)O)cc32)-c2ccccc2N1C (racemic)
(B) CN(C)CCN1CCn2c(c(C3CCCCC3)c3ccc(C(=O)O)cc32)-c2ccccc21
(C) COc1ccc2c(c1)N(CCN(C)C)CCCn1c-2c(C2CCCCC2)c2ccc(C(=O)O)cc21
Hi! Can you put these in order of IC50, lowest number first? // format: requested-order list of labels
B, A, C
(B: 0.028 µM, A: 0.043 µM, C: 0.077 µM)

* * *

- Protocol Notes: Fraction unbound in rat plasma
- Format: ADME, cell-free
Metric Name: fraction unbound

(A) CN(C)CC(=O)N1CCn2c(c(C3CCCCC3)c3ccc(C(=O)O)cc32)-c2ccc(F)cc2C1
(B) CN(C)CCN1CCn2c(c(C3CCCCC3)c3ccc(C(=O)O)cc32)-c2ccccc2C1
Could you tell me which of these two has the smaller fraction unbound figure? First: A Second: B State the label of the item chosen.
A

* * *

- Protocol Notes: Oral bioavailability in rat
- Format: ADME, organism-based
- Assay Context: in vivo
Metric Name: bioavailability (%)

Kindly note the recorded bioavailability for "CN(C)CCN1CCn2c(c(C3CCCCC3)c3ccc(C(=O)O)cc32)-c2ccccc2C1" , which is 31

(I) COc1ccc2c(c1)CN(C)CCn1c-2c(C2CCCCC2)c2ccc(C(=O)O)cc21
(II) CCN(CC)C1CCN(C(=O)Cn2c(-c3ccc(Cl)cc3)c(C3CCCCC3)c3ccc(C(=O)O)cc32)CC1
Could you tell me which of these two has the smaller bioavailability figure? First: I Second: II State the label of the item chosen.
II
(II: 10%, I: 83%)
